Taken from BigSolDB 2.1.

- test-context: in acetone, 298.15 K
readout-type: solubility (mole fraction)
Lab note: jot the number down without any unit.

Which solubility (mole fraction) reading was recorded for the molecule COc1cccc(CCc2ccccc2OCC(CN(C)C)OC(=O)CCC(=O)O)c1.Cl (stereo unspecified) ?
0.000106

----------
- test-context: in acetonitrile, 303.15 K
readout-type: solubility (mole fraction)
Lab note: jot the number down without any unit.

Which solubility (mole fraction) reading was recorded for the compound COc1cccc(CCc2ccccc2OCC(CN(C)C)OC(=O)CCC(=O)O)c1.Cl (stereo unspecified) ?
0.000239

----------
- test-context: in n-butanol, 303.15 K
readout-type: solubility (mole fraction)
Lab note: jot the number down without any unit.

Which solubility (mole fraction) reading was recorded for the compound COc1cccc(CCc2ccccc2OCC(CN(C)C)OC(=O)CCC(=O)O)c1.Cl (stereo unspecified) ?
0.000294

----------
- test-context: in ethanol, 293.15 K
readout-type: solubility (mole fraction)
Lab note: jot the number down without any unit.

Which solubility (mole fraction) reading was recorded for the compound COc1cccc(CCc2ccccc2OCC(CN(C)C)OC(=O)CCC(=O)O)c1.Cl (stereo unspecified) ?
0.00211

----------
- test-context: in n-butanol, 298.15 K
readout-type: solubility (mole fraction)
Lab note: jot the number down without any unit.

Which solubility (mole fraction) reading was recorded for the compound COc1cccc(CCc2ccccc2OCC(CN(C)C)OC(=O)CCC(=O)O)c1.Cl (stereo unspecified) ?
0.00019

----------
- test-context: in n-butanol, 293.15 K
readout-type: solubility (mole fraction)
Lab note: jot the number down without any unit.

Which solubility (mole fraction) reading was recorded for the molecule COc1cccc(CCc2ccccc2OCC(CN(C)C)OC(=O)CCC(=O)O)c1.Cl (stereo unspecified) ?
0.000146

----------
- test-context: in isopropanol, 293.15 K
readout-type: solubility (mole fraction)
Lab note: jot the number down without any unit.

Which solubility (mole fraction) reading was recorded for the compound COc1cccc(CCc2ccccc2OCC(CN(C)C)OC(=O)CCC(=O)O)c1.Cl (stereo unspecified) ?
8.24e-05

----------
- test-context: in methanol, 308.15 K
readout-type: solubility (mole fraction)
Lab note: jot the number down without any unit.

Which solubility (mole fraction) reading was recorded for the compound COc1cccc(CCc2ccccc2OCC(CN(C)C)OC(=O)CCC(=O)O)c1.Cl (stereo unspecified) ?
0.0116

----------
- test-context: in n-butanol, 288.15 K
readout-type: solubility (mole fraction)
Lab note: jot the number down without any unit.

Which solubility (mole fraction) reading was recorded for the compound COc1cccc(CCc2ccccc2OCC(CN(C)C)OC(=O)CCC(=O)O)c1.Cl (stereo unspecified) ?
0.00011

----------
- test-context: in ethanol, 298.15 K
readout-type: solubility (mole fraction)

Which solubility (mole fraction) reading was recorded for the compound COc1cccc(CCc2ccccc2OCC(CN(C)C)OC(=O)CCC(=O)O)c1.Cl (stereo unspecified) ?
0.00278

----------
- test-context: in THF, 298.15 K
readout-type: solubility (mole fraction)
Lab note: jot the number down without any unit.

Which solubility (mole fraction) reading was recorded for the compound COc1cccc(CCc2ccccc2OCC(CN(C)C)OC(=O)CCC(=O)O)c1.Cl (stereo unspecified) ?
4.28e-05

----------
- test-context: in THF, 293.15 K
readout-type: solubility (mole fraction)

Which solubility (mole fraction) reading was recorded for the compound COc1cccc(CCc2ccccc2OCC(CN(C)C)OC(=O)CCC(=O)O)c1.Cl (stereo unspecified) ?
3.25e-05
